Could you please report measured Growth Rate for the items listed next?
Test system: HEK-293T
test: Incucyte cell viability with HEK293T; further: filed as whole numbers so only -1 and 0 and 1 occur
Type: toxicity, cell-based
recorded-conditions: human, 6 h, 10 µM, compound concentration 10 uM, replicate number 1, timepoint 6 hours
Give bare numbers.

Reference set (4 entries):
compound="NC(=O)Nc1cc(-c2cccc(F)c2)sc1C(=O)N[C@H]1CCCNC1 [AZD-7762]" val=0
compound="C[C@H](Cc1cc2c(c(C(N)=O)c1)N(CCCO)CC2)NCCOc1ccccc1OCC(F)(F)F [SILODOSIN]" val=0
compound=Cc1nc(C(=O)N2CCC[C@H]2Cc2nnc(-c3ccccc3)o2)c(-c2ccccc2F)s1 val=0
compound="Cc1cc(Nc2nccc(C)n2)cc(-c2cnc([C@@]3(O)CC[C@H](C(=O)O)C(C)(C)C3)s2)c1 [MRL-SYKi]" val=0

Dear colleague, could you please provide Growth Rate for the compounds listed below?
1. O=C(NCCCC1CCCCC1)c1ccc(CNC(=O)c2cnn(-c3ccccc3)c2C(F)(F)F)cc1 [SR-321]
2. C[C@@]1(Cc2ccc(C#N)cc2)C(=O)N(c2cc(Cl)cc(Cl)c2)c2ncc(C(=O)NC3(c4nc(C5CCC5)no4)CC3)n21 [BI 9446]
3. CNCc1ccccc1-c1csc([C@H](C)Nc2nc(C)nc3cc(OC)c(OC)cc23)c1 [BAY-294]
4. CCN(CC)CCCCNc1ncc2cc(-c3cc(OC)cc(OC)c3)c(NC(=O)NC(C)(C)C)nc2n1 [PD-173074]
5. N#CC(Cc1ccc(O)cc1)c1ccc(O)cc1 (stereo not drawn) [DIARYLPROPIONITRILE]
6. C=CC(=O)Nc1cc2c(Nc3ccc(F)c(Cl)c3)ncnc2cc1OCCCN1CCOCC1.Cl.Cl [CANERTINIB DIHYDROCHLORIDE]
7. O=C1NCN(c2ccccc2)C12CCN(CCCOc1ccc(F)cc1)CC2 [SPIRAMIDE]

# output
[0, 0, 0, 0, 1, 0, 0]

Provide reported Growth Rate for each item, in the same order as listed.
1. COc1cccc(OC)c1-c1cc(C(=O)NC2(C(=O)O)C3CC4CC(C3)CC2C4)nn1-c1ccc(C(=O)N(C)CCCN(C)C)cc1C(C)C (stereo not drawn)
2. CN(C)c1ncnc(-c2ccc3nc(Nc4cc(CN5CCN(C(=O)CC(F)(F)F)CC5)ccn4)[nH]c3c2)c1Cl [BAY-440]

# output
[0, 0]
